Source: the supplement of paper PMC10567573

B1: SERPINB5 (parent)
chain: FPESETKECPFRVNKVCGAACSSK

Variants of: B1
Assay: protein stability index of a GFP-peptide fusion (GPS, HEK-293T) (PSI 1-6); higher = more stable;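 also: lentivirally expressed fusions sorted by FACS into six bins by GFP to DsRed ratio, PSI derived from sequencing read proportions per bin multiplied by bin number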
Settings: c terminus: a fixed tail appended
Listing of entries alongside the reported protein stability index.
Would you mind answering with just the numeric figure?

Example variants with recorded protein stability index:
[
  {
    "Variant Designation": "G18A",
    "protein stability index": 2.65
  },
  {
    "Variant Designation": "C9Y",
    "protein stability index": 2.92
  },
  {
    "Variant Designation": "K15E",
    "protein stability index": 2.83
  }
]

Recorded result, P10G , protein stability index: 4.1

Sample A19T ; protein stability index observed: 2.62

Looking up T6S , I see its protein stability index listed as 2.36

Query K24Y yields protein stability index of 2.25

Quick note, protein stability index for S22R landed at 2.36

Notebook: E8Q , protein stability index read as 1.98

F11V yielded protein stability index of 4.25

Noted for P10H : its protein stability index reads 3.62
